Assay: Bioavailability of salt forms in rats
Type: in vivo
Conditions: rat, in vivo; in rats; read-out: bioavailability

# Compound, bioavailability / %
rows = [
    ("C[C@H](c1ccc(Cl)cc1Cl)n1nc(C(F)(F)F)c2ncc(N3CC([C@H]4CCCN(CCO)C4)C3)nc21 [crystalline form A]", 34),
]
